All values here come from patent US7495003B2.

Biological target: DPP-IV (Homo sapiens, UniProt P27487)
Construct: an extract of the human colon carcinoma cell line Caco-2 is used as the DPP IV source; endogenous in cells; Nonidet-P40 solubilised extract
Sequence (P27487 whole entry): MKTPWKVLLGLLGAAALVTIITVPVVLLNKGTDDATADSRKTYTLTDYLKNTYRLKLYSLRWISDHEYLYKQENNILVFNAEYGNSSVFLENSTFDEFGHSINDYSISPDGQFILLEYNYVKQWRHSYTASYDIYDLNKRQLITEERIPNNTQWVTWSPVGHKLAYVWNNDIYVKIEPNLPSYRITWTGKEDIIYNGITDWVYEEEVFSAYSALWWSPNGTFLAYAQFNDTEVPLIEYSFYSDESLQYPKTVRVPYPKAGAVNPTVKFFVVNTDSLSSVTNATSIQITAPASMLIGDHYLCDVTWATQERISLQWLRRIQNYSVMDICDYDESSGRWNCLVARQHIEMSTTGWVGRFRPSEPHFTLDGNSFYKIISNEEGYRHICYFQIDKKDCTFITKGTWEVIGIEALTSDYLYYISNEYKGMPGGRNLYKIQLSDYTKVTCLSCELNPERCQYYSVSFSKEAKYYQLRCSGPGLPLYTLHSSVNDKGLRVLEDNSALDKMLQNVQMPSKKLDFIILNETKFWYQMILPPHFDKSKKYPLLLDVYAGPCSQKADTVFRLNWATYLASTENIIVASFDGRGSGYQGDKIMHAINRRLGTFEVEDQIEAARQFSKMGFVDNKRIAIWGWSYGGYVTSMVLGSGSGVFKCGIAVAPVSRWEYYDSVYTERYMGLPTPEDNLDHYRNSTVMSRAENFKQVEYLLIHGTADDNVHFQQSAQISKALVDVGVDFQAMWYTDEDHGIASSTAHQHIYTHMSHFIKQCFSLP
Test: DPP-IV assay with extract of Caco-2 cells as DPP IV source (AFC substrate, fluorescence)
Conditions: extract of human colon carcinoma cell line Caco-2; substrate 100 μM; 60 minutes at ambient temperature; read-out: DPP IV inhibition IC50
IC50 values by entry
The figure you give is taken to be in nM; do not add the unit.

compound="CC#CCn1c(N2CCC[C@@H](N)C2)nc2c1c(=O)n(Cc1nc(C)c3ccccc3n1)c(=O)n2CC(=O)OCC [1(3)]" obs_value=3

Then there is this compound:
Query :: Record request: IC50 value, item CC#CCn1c(N2CCC[C@@H](N)C2)nc2c1c(=O)n(Cc1nc(C)c3ccccc3n1)c(=O)n2CC(=O)OC [Example 1(2)]
Result :: 3
